tested on: Oryza sativa; experiment: Phytotoxicity against directly seeded Oryza sativa (rice) seedlings assessed as phytotoxic activity ratings (0- no effect to 5-complete killing rating scale) at 100 g/a measured after 3 weeks post compound treatment under green house conditions; assay type: organism-based; conditions: in vivo, 504 h
Quick list: Activity per entry.
The response must be a number in % with no trailing unit.

Examples from the recorded data:
C[C@H](NC(=O)Nc1ccc(F)cc1)c1ccccc1	0
COc1ccccc1NC(=O)N[C@H](C)c1ccccc1	0
C[C@@H](NC(=O)Nc1ccc(Cl)cc1)c1ccccc1	0
CCc1cccc(CC)c1NC(=O)N[C@@H](C)c1ccccc1	0

Lab book: Activity of C[C@H](NC(=O)Nc1cccc(I)c1)c1ccccc1 noted as 0

Lab book: Activity of Cc1cccc(NC(=O)N[C@H](C)c2ccccc2)c1 noted as 10

Lab book: Activity of CCOC(=O)c1cccc(NC(=O)N[C@H](C)c2ccccc2)c1 noted as 0
